assay.method.text: Linearity after single p.o. dose in mouse
Type: in vivo
stated.conditions: plasma, po; female NMRI mouse, 30 mg/kg p.o., 5% Tween 80
recorded.endpoint: Tmax

Tmax lookup needed for O=c1ccc2ccc(O[C@@H]3C[C@H]4CC[C@@H](C3)N4)cc2o1 [Compound (I)] , thanks. 30 min

* * *

assay.method.text: Bioavailability study in dog
Type: in vivo
stated.conditions: plasma, po; Male beagle dog, 2.5 mg/kg p.o.; read-out: T½ p.o. (converted)
recorded.endpoint: half-life (min)
Hi! Could you send only the number? It should be in min, unit omitted.

half-life lookup needed for O=c1ccc2ccc(O[C@@H]3C[C@H]4CC[C@@H](C3)N4)cc2o1 [Compound (I)] , thanks. 102
